Reference for the values: ChEMBL document CHEMBL1159381

assayProcedure: Cytotoxicity against GFP reporter gene expressing human HOG.R5 cells
Format: cell-based
testReadout: CC50 (µM)
Number only, in µM; omit the unit.

Ask: Which CC50 reading was recorded for the compound `C=C1CC[C@H](C(C)(C)O)/C=C/[C@@H](C)CCC1=O` ?
Reply: 63.4
